System: Bloodstream form of Trypanosoma brucei, strain Lister 427
ASSAY EXPLANATION: Trypanosoma brucei growth inhibition assay (CellTiter-Glo, 24 h)
Assay type: cell-based
RUN PARAMETERS: Trypanosoma brucei; T. Brucei Growth Inibition Assay, class symbols; read-out: T. Brucei GI EC50
Method: […] After an incubation period of 24 hours at 37° C., each well is added 15 μl of CellTiter-Glo® Reagent (Promega) and incubated at room temperature. 5-10 min post incubation, the plate is read using a luminometer (ViewLux®). […]
MEASUREMENT TYPE: EC50

Short answer for `COc1ccc2nc(C)n(CC(=O)N3CCN(C4CCN(C(C)=O)CC4)C[C@H]3c3ncc(-c4cc5ccccc5nc4OC)[nH]3)c2c1` : EC50 was 510 to 1000 nM

Short answer for CCCCCCN1CCN(C(=O)Cc2cn(C)c3ccccc23)C(c2ncc(-c3ccc4ccccc4c3)[nH]2)C1 (centres unmarked) : EC50 was 1010 to 5000 nM

Short answer for COc1nc2ccccc2cc1-c1cnc(C2COCCN2C(=O)Cn2nc(C)c3ccccc3c2=O)[nH]1 (centres unmarked) : EC50 was 1010 to 5000 nM

Short answer for COc1nc2ccccc2cc1-c1cnc(C2CN(C(=O)C3CCN(C)CC3)CCN2C(=O)Cc2c(C)[nH]c3ccc(F)cc23)[nH]1 (centres unmarked) : EC50 was 1010 to 5000 nM

Short answer for `COc1ccc2nc(C)n(CC(=O)N3CCN(CCn4cccn4)C[C@H]3c3ncc(-c4cc5ccccc5nc4OC)[nH]3)c2c1` : EC50 was 100 to 500 nM

Short answer for `COc1ccc2nc(C)n(CC(=O)N3CC[C@H](N4CCOCC4)C[C@H]3c3ncc(-c4cc5ccccc5nc4OC)[nH]3)c2c1` : EC50 was 100 to 500 nM

Short answer for COc1ccc2c(c1)C(CC(=O)N1CCN(CC3CCOC3)CC1c1ncc(-c3ccc4ccccc4c3)[nH]1)C(=O)N2 (centres unmarked) : EC50 was 1010 to 5000 nM

Short answer for COc1nc2ccccc2cc1-c1cnc(C2CN(Cc3ccccc3)CCN2C(=O)Cc2c(C)[nH]c3ccc(F)cc23)[nH]1 (centres unmarked) : EC50 was 100 to 500 nM

Short answer for CCC(=O)CCCN1CCN(C(=O)Cc2ccccc2)C(c2ncc(-c3cc4ccccc4nc3OC)[nH]2)C1 (centres unmarked) : EC50 was 1010 to 5000 nM

Short answer for COc1nc2ccccc2cc1-c1cnc([C@@H]2CN(CC3CCOC3)CCN2C(=O)Cn2c(C(N)=O)nc3ccccc32)[nH]1 (some centres unmarked) : EC50 was 510 to 1000 nM

Short answer for COc1ccc2nc(C(F)(F)F)n(CC(=O)N3CCN(CCn4cccn4)CCC3c3ncc(-c4cc5ccccc5nc4OC)[nH]3)c2c1 (centres unmarked) : EC50 was < 100 nM

Short answer for COc1cccc(CCC(=O)N2CCN(CC3CCOC3)CC2c2ncc(-c3cc4ccccc4nc3OC)[nH]2)c1 (centres unmarked) : EC50 was 1010 to 5000 nM

Short answer for COc1ccc2nc(C(F)(F)F)n(CC(=O)N3CCN(Cc4cnccn4)CCC3c3ncc(-c4cc5ccccc5nc4OC)[nH]3)c2c1 (centres unmarked) : EC50 was < 100 nM

Short answer for COc1ccc2nc(C)n(CC(=O)N3CCN(CC4CCOC4)C[C@H]3c3ncc(-c4cc5ccccc5[nH]4)[nH]3)c2c1 (some centres unmarked) : EC50 was 1010 to 5000 nM

Short answer for COc1ccc2cc(C)n(CC(=O)N3CCS(=O)(=O)CC3c3ncc(-c4cc5ccccc5nc4OC)[nH]3)c2c1 (centres unmarked) : EC50 was 510 to 1000 nM

Short answer for COc1ccc2nc(C)n(CC(=O)N3CCCCC3c3ncc(-c4cc5ccccc5nc4OC)[nH]3)c2c1 (centres unmarked) : EC50 was 100 to 500 nM

Short answer for `COc1nc2ccccc2cc1-c1cnc([C@@H]2CN(Cc3cscn3)CCN2C(=O)Cn2c(C(F)(F)F)nc3ccccc32)[nH]1` : EC50 was < 100 nM

Short answer for `COc1ccc2nc(C(F)(F)F)n(CC(=O)N3CC[C@@H](NCc4nccs4)C[C@H]3c3ncc(-c4cc5ccccc5nc4OC)[nH]3)c2c1` : EC50 was 100 to 500 nM

Short answer for COc1ccc2nc(C)n(CC(=O)N3CCN(CC4CCOC4)C[C@H]3c3ncc(-c4cc5ccccc5cn4)[nH]3)c2c1 (some centres unmarked) : EC50 was 100 to 500 nM

Short answer for COc1nc2ccccc2cc1-c1cnc(C2CN(CC3CCOC3)CCN2C(=O)c2sc(-c3cnccn3)nc2C)[nH]1 (centres unmarked) : EC50 was 1010 to 5000 nM

Source listed as patent US10815222B2.
